Data provenance is patent US10626107B2.

Experiment: Solubility study at different pHs
Type: physicochemical
Settings: simulated gastric fluid, thermodynamic from solid; 0.1N HCl (pH 1.00), 37° C., 4 hrs

{"columns": ["compound", "solubility at 4 h"],
 "data": [
  ["CC(C)c1c2cc(-c3nc(Nc4ccc(N5CCNCC5)cn4)ncc3F)ccc2nn1C.O=C(O)/C=C\\C(=O)O [A crystal form of compound WX_1]", "> 2500 µg/mL"]
]}

* * *

Assay: Solubility study at different pHs
Type: physicochemical
Settings: aqueous buffer, thermodynamic from solid; pH 4.5 buffer (pH 4.48), 37° C., 24 hrs
experimental.readout: solubility at 24 h

{"columns": ["compound", "reported.result"],
 "data": [
  ["CC(C)c1c2cc(-c3nc(Nc4ccc(N5CCNCC5)cn4)ncc3F)ccc2nn1C.O=C(O)/C=C\\C(=O)O [A crystal form of compound WX_1]", "> 2500 µg/mL"]
]}
